system: HCC-366; assay: relative viability (nuclei count vs DMSO), 5 days (fraction); higher = more cells survive; details: first compound 0.08 µM
QUANTITY NAME: relative viability
Answer field: number only, no words.

Some solved cases for reference:
| MOLECULE | relative viability |
| --- | --- |
| C=C1C(=O)O[C@@H](CCCCCCCC)[C@@H]1C(=O)O [C-75] + CC1(C)CCC(c2ccc(Cl)cc2)=C(CN2CCN(c3ccc(C(=O)NS(=O)(=O)c4ccc(N[C@H](CCN5CCOCC5)CSc5ccccc5)c(S(=O)(=O)C(F)(F)F)c4)cc3)CC2)C1 [Navitoclax] (partner 0.5 µM) | 1.03 |
| C=C1C(=O)O[C@@H](CCCCCCCC)[C@@H]1C(=O)O [C-75] + Cc1nc(Nc2ncc(C(=O)Nc3c(C)cccc3Cl)s2)cc(N2CCN(CCO)CC2)n1 [Dasatinib] (partner 0.075 µM) | 0.744 |
| Oc1nc(-c2ccc(C(F)(F)F)cc2)nc2c1CSCC2 [XAV939] + Cc1cc(Nc2cc(N3CCN(C)CC3)nc(Sc3ccc(NC(=O)C4CC4)cc3)n2)n[nH]1 [Tozasertib] (partner 0.1 µM) | 0.163 |
| Oc1nc(-c2ccc(C(F)(F)F)cc2)nc2c1CSCC2 [XAV939] + N=C(N)NC(=N)NCCc1ccccc1 [Phenformin] (partner 250 µM) | 0.638 |

Kindly review the next molecule as well.
C=C1C(=O)O[C@@H](CCCCCCCC)[C@@H]1C(=O)O [C-75] + Nc1ncn([C@H]2C[C@H](O)[C@@H](CO)O2)c(=O)n1 [Decitabine] (partner 2 µM) yielded relative viability of 0.357
